Data origin: paper PMC11772548

target: ligand-binding domain (LBD) of human RORβ (human, UniProt Q92753-2 250-450, Paper numbering follows the 459-aa isoform (RORβ1; Thr210, Cys262, LBD ending at the AF-2 end, 450), so +11 gives the 470-aa entry: printed 250-450 = 261-461. The paper's modelled LBD is 210-450 (= 22); assay: ITC; 2 mM SRC-1 peptide titrated into 50-100 µM LBD of RORβ; 20 mM Tris-HCl pH 8.6, 2 mM CHAPS, 100 mM NaCl, 5 mM DTT; Malvern MicroCal PEAQ-ITC; conditions: both partners purified
Sequence (Q92753 250-450): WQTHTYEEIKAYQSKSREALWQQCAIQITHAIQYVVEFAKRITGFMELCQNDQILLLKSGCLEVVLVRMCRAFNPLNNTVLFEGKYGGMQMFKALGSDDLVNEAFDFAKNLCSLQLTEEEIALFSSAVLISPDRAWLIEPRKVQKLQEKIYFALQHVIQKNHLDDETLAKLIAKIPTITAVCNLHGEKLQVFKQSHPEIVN
Readout: pKd
// returns pKd (minus log10 of molar concentration), number only

Ask: Which pKd is listed for RHKILHRLLQEGSPS (also called SRC-1 peptide; source: synthetic peptide (GenScript)) [SRC-1 co-activator peptide] ?
Reply: 4.70
